experimental_target: Sterol O-acyltransferase 1 (Rattus norvegicus) (UniProt O70536)
Sequence (O70536 whole entry): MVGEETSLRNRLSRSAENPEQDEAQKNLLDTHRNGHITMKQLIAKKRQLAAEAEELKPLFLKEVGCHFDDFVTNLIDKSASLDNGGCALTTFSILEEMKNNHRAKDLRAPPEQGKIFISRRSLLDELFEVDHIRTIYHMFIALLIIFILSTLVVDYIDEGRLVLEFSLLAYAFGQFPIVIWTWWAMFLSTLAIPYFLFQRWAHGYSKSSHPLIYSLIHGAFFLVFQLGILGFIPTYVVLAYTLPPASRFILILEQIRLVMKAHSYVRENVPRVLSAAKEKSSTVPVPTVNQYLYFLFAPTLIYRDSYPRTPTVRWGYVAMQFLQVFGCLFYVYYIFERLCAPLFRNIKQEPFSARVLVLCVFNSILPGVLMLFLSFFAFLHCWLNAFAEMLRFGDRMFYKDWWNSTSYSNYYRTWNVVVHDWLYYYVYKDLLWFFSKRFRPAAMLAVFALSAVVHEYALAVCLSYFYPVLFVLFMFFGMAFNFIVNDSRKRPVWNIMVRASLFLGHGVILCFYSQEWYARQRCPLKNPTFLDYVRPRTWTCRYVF
procedure_summary: Acute in vivo activity was measured by the total plasma cholesterol concentration levels(TC) at dose 50 mg/kg
Format: functional, organism-based
Set-up: dose 50 mg/kg
Listing of entries alongside the reported Delta TC.
All answers are understood in %, so give the number only.

Completed entries (count: 6):
CC(C)(C)c1cccc(C(C)(C)C)c1OC(=O)NS(=O)(=O)NC(c1ccccc1)c1ccccc1 = -35
CCCCN(CCCC)S(=O)(=O)NC(=O)Nc1c(C(C)C)cccc1C(C)C = -66
CC(C)(C)c1cccc(C(C)(C)C)c1OC(=O)NS(=O)(=O)N(Cc1ccccc1)Cc1ccccc1 = -3
CC(C)c1cccc(C(C)C)c1NC(=O)NS(=O)(=O)NCC(c1ccccc1)c1ccccc1 = -20
CC(C)c1cccc(C(C)C)c1NS(=O)(=O)NC(=O)Oc1c(C(C)(C)C)cccc1C(C)(C)C = -57
CC(C)c1cccc(C(C)C)c1NC(=O)NS(=O)(=O)NC1c2ccccc2-c2ccccc21 = -4

Recorded Delta TC of `CC(C)c1cccc(C(C)C)c1NC(=O)NS(=O)(=O)N(Cc1ccccc1)C(C)C` , please. -60

Also, `CC(C)c1cccc(C(C)C)c1OC(=O)NS(=O)(=O)NCC(c1ccccc1)c1ccccc1` please. -29
